Here, each record is paired with measured abundance fitness data.
B1: Activity-dependent neuroprotector homeobox protein, residues 770 to 810; numbered along this chain, Q9H2P0 (parent)
chain: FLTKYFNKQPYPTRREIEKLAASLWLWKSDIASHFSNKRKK

- Variants of: B1
- protocol.description: abundance fitness (aPCA) (normalised: wild type 0, dead -1); higher = more abundant; growth selection in yeast, the domain comes from the species named
- condition: Homo sapiens
result.type: abundance fitness

variant.label: Y11N
observed: 0.124
//
variant.label: N7V
observed: -0.841
//
variant.label: S33L
observed: -0.154
//
variant.label: K41L
observed: -0.4
//
variant.label: R14W
observed: -0.262
//
variant.label: S29K
observed: 0.208
//
variant.label: T13Y
observed: 0.083
//
variant.label: S23L
observed: -0.211
//
variant.label: Y11A
observed: 0.137
//
variant.label: L20T
observed: -0.106
//
variant.label: S23N
observed: -0.074

Source of measurements: the Human Domainome abundance scans (Beltran et al. 2025)
